From: patent EP0242855A2

# measured-target: collagen (Gallus gallus, UniProt P02457+P02467)
# Construct: collagen obtained by grinding and deliming the bone of a spring chicken; from tissue; host or cells: bone of a spring chicken, ground and delimed (demineralised)
# Sequence (P02467 78-1363): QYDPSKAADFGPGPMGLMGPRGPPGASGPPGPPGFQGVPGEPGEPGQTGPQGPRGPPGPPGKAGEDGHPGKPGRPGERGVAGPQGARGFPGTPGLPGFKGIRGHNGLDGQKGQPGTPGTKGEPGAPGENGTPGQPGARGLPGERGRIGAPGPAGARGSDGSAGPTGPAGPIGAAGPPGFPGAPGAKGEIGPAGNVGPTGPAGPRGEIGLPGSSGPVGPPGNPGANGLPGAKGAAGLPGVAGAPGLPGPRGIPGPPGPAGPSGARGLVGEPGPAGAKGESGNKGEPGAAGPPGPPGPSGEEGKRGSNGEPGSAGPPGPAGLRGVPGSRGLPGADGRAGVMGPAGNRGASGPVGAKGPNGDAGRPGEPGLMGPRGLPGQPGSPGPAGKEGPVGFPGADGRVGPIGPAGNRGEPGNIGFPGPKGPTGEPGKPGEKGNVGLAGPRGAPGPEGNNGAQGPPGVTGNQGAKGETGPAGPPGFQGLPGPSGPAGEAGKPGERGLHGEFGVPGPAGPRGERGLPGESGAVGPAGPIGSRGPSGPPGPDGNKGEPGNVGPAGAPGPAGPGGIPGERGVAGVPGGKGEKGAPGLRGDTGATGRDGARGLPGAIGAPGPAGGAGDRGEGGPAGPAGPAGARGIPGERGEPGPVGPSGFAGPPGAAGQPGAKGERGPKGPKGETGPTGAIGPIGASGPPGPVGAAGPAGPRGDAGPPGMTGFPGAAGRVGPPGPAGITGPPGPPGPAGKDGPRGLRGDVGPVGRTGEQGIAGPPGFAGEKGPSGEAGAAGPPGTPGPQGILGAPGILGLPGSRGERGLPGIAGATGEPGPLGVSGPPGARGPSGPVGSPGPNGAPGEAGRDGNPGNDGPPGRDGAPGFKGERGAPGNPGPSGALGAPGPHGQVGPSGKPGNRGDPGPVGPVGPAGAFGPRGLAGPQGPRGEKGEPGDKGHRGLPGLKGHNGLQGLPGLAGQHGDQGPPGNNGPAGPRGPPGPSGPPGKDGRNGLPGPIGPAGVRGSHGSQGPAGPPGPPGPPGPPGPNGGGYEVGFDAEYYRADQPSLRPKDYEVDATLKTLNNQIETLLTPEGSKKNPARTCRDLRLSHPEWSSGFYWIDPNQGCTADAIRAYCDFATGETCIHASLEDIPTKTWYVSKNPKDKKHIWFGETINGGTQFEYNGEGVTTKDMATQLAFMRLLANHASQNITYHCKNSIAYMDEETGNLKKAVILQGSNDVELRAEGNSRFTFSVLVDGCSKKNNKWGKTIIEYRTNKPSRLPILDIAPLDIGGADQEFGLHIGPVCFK
# Sequence (P02457 152-1207): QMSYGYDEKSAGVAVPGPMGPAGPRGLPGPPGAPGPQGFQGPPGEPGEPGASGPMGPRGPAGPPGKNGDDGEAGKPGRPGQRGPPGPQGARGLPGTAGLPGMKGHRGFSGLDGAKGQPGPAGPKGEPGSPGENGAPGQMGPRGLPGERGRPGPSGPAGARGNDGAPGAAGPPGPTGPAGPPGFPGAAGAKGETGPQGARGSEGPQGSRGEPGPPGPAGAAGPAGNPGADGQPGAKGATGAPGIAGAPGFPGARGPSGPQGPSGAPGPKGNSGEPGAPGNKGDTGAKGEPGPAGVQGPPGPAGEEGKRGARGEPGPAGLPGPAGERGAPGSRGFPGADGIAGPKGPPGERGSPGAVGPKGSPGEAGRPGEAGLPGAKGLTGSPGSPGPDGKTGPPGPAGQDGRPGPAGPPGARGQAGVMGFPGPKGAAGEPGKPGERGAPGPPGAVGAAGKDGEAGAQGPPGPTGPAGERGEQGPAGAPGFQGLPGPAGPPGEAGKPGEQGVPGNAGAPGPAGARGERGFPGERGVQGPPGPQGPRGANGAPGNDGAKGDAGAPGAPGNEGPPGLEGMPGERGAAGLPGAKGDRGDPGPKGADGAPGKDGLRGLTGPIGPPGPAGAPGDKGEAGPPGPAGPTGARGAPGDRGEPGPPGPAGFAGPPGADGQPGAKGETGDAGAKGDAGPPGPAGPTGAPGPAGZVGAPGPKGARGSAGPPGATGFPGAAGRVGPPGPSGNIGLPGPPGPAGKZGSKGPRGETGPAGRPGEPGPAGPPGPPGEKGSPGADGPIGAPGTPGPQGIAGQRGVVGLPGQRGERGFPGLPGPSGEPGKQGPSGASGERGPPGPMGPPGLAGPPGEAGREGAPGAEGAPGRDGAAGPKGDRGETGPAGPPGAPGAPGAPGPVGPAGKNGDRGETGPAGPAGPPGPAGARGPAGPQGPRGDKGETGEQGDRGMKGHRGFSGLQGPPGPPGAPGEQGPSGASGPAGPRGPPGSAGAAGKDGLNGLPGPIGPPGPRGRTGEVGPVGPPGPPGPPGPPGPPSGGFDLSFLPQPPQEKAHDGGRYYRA
# Type: biochemical, spring chicken
# test-parameters: silicon compound 0.01 %; collagen 100 mg, glucose 0.2 M, pH 7.4, 37 C, 4 weeks
# cutoff 0.4 applies to Portion A/ portion B; >= gives y, < gives n

Here are 4 compounds together with their reported answers.
Say whether `O[Si](O)(O)C1CCCCC1` shows Portion A/ portion B of 0.4 or more.
y

Say whether `CCCCCCCCCCCC[Si](O)(O)O` shows Portion A/ portion B of 0.4 or more.
y

Hello, I need to know if `CC=C[Si](O)(O)O` has measured Portion A/ portion B not below 0.4. Thanks!
y

Textbook exercise: given the entry `C[Si](O)(O)O[Si](C)(O)O` , state whether its Portion A/ portion B is greater than or equal to 0.4.
n

---
I'd appreciate it if you could say whether `C[Si](C)(O)O` has Portion A/ portion B at least equal to 0.4.
y
